Numbers sourced from patent US9920010B2.

# tgt: CXCR7 (Homo sapiens, UniProt P25106)
# Sequence (P25106 whole entry): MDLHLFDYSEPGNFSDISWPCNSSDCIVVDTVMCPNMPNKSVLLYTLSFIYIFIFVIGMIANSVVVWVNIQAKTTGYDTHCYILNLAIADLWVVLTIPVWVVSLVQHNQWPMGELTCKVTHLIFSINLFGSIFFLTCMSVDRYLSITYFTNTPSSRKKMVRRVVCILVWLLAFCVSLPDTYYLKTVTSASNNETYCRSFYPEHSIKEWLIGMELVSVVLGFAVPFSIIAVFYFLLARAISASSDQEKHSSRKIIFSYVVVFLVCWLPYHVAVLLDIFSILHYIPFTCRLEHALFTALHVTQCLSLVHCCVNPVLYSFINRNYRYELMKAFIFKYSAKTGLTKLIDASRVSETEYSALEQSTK
# Sequence (P32121 whole entry partner): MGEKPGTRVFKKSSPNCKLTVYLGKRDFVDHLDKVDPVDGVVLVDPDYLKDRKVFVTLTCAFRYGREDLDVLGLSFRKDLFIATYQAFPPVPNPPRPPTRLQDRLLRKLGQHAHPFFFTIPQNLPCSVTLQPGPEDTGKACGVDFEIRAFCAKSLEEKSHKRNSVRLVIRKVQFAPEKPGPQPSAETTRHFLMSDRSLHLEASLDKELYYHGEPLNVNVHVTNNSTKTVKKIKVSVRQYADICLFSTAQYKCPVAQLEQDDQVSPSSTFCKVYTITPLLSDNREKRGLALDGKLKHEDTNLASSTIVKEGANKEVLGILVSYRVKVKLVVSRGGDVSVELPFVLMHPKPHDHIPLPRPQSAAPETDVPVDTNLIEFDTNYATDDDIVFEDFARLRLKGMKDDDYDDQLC
# test: PathHunter CHO-K1 CXCR7 b-arrestin recruitment assay (CXCR7 agonistic activity)
# measurement.context: PathHunter CHO-K1 CXCR7 b-arrestin cell line
Kindly state pEC50 for each of the entries shown.
Numbers only, as −log10 of the molar value.

Field: example entries. Status: answers known.
compound	pEC50
CCN1CCc2cccc(NCC(=O)N(CCN(C)C)Cc3ncccc3Cl)c2C1 [compound 511]	7.54
CN(C)CCN(Cc1ccccc1C(F)(F)F)C(=O)CNc1cccc2c1CCN(CC#N)C2 [Example 364]	7.36
CN(C)CCN(Cc1ncccc1Br)C(=O)CNc1cccc2c1CCN(CC1CC1)C2 [Example 236]	8.52
O=C(CNc1cccc2c1CCN(CC1CC1)C2)N(CCN1CCC(F)(F)CC1)Cc1ccccc1C(F)(F)F [Example 277]	7.55
Cc1cccc(CN(C(=O)CNc2cccc3c2CCN(CC2CC2)C3)C2CC2)c1C [Example 69]	6.38
CNCCN(Cc1ccccc1C(F)(F)F)C(=O)CNc1cccc2c1CCN(C(=O)C(C)C)C2 [compound 387]	7.92

Look up pEC50 for the entries below, preserving their order.
1. C/C(=C\c1cccc2c1CCN(C(=O)OC(C)(C)C)C2)C(=O)N(CCN(C)C)Cc1ccccc1C(F)(F)F [Example 97]
2. CCN1CCc2c(cccc2OCC(=O)N(CCN(C)C)Cc2ccccc2Cl)C1 [compound 171]

A:
6.44
7.74
